Recorded values, source paper PMC7287649.

target: hCA IX (Homo sapiens, UniProt Q16790); assay: stopped flow CO2 hydrase assay, hCA IX; conditions: hCA II over hCA IX
Consider the following molecules; for each one, report its Selectivity Ratio KI hCA II/KI hCA IX.
# respond with the number and nothing more

The value of Selectivity Ratio KI hCA II/KI hCA IX measured for the molecule Cc1ncc([N+](=O)[O-])n1CCOC(=O)NCCc1ccc(S(N)(=O)=O)cc1 [Compound 2b] turned out to be 0.35

The value of Selectivity Ratio KI hCA II/KI hCA IX measured for the molecule NS(=O)(=O)c1ccc(CNC(=O)OCCNC(=O)c2cc([N+](=O)[O-])ccc2N(CCCl)CCCl)cc1 [Compound 3c] turned out to be 0.94

The value of Selectivity Ratio KI hCA II/KI hCA IX measured for the molecule NS(=O)(=O)c1ccc(CCNC(=O)OCCNC(=O)c2cc([N+](=O)[O-])ccc2N(CCCl)CCCl)cc1 [Compound 3b] turned out to be 0.09

The value of Selectivity Ratio KI hCA II/KI hCA IX measured for the molecule Cc1ncc([N+](=O)[O-])n1CCOC(=O)NCc1ccc(S(N)(=O)=O)cc1 [Compound 2c] turned out to be 0.28

The value of Selectivity Ratio KI hCA II/KI hCA IX measured for the molecule NS(=O)(=O)c1ccc(CCNC(=O)OCc2ccc([N+](=O)[O-])o2)cc1 [Compound 4b] turned out to be 2.72
